Test system: BT-549
Experiment: normalised viability (% of control), CellTiter-Blue; higher = more viable cells (about 100 = DMSO control)
Settings: 1 nM; incubation time: 72 h
# normalised viability per record follows
property.label: normalised viability (%)

[
  {
    "compound": "Cn1cc(CNCC2CCN(c3ncc(C(=O)NO)cn3)CC2)c2ccccc21",
    "property.label": "normalised viability",
    "measured.number": 78
  },
  {
    "compound": "O=C1c2c(O)ccc(O)c2C(=O)c2c(NCCNCCO)ccc(NCCNCCO)c21",
    "property.label": "normalised viability",
    "measured.number": 82.4
  },
  {
    "compound": "Cc1cccc(-c2nn3c(c2-c2ccnc4ccc(C(N)=O)cc24)CCC3)n1",
    "property.label": "normalised viability",
    "measured.number": 93.8
  },
  {
    "compound": "COc1cc(CCc2cc(NC(=O)c3ccc(N4CC(C)NC(C)C4)cc3)n[nH]2)cc(OC)c1 (centres undefined)",
    "property.label": "normalised viability",
    "measured.number": 89.1
  }
]

---

Tested on: HDQ-P1
Assay: normalised response (% of control), CellTox Green; higher = less cell death (100 = DMSO, 0 = benzethonium chloride kill control)
Conditions: incubation time: 72 h
Below, each entry is listed alongside its reported normalised response.

[
  {
    "molecule": "O=C1c2c(O)ccc(O)c2C(=O)c2c(NCCNCCO)ccc(NCCNCCO)c21 [Mitoxantrone] (100 nM)",
    "tgt": "HDQ-P1",
    "normalised response": "101%"
  },
  {
    "molecule": "CO[C@@H](C(=O)N1Cc2[nH]nc(NC(=O)c3ccc(N4CCN(C)CC4)cc3)c2C1)c1ccccc1 [Danusertib] (1000 nM)",
    "tgt": "HDQ-P1",
    "normalised response": "105%"
  },
  {
    "molecule": "O=C(NC[C@H](O)CO)c1ccncc1Nc1ccc(I)cc1F [Pimasertib] (100 nM)",
    "tgt": "HDQ-P1",
    "normalised response": "104%"
  },
  {
    "molecule": "O=C(NC[C@H](O)CO)c1ccncc1Nc1ccc(I)cc1F [Pimasertib] (1000 nM)",
    "tgt": "HDQ-P1",
    "normalised response": "77.2%"
  },
  {
    "molecule": "Cc1ccc(Nc2nccc(N(C)c3ccc4c(C)n(C)nc4c3)n2)cc1S(N)(=O)=O [Pazopanib] (10000 nM)",
    "tgt": "HDQ-P1",
    "normalised response": "111%"
  },
  {
    "molecule": "c1cc(CN2CCCNCCNCCCNCC2)ccc1CN1CCCNCCNCCCNCC1 [Plerixafor] (10000 nM)",
    "tgt": "HDQ-P1",
    "normalised response": "104%"
  },
  {
    "molecule": "CC(=O)OC[C@H]1O[C@@H]([S-])[C@H](OC(C)=O)[C@@H](OC(C)=O)[C@@H]1OC(C)=O.CCP(CC)CC.[Au+] [Auranofin] (2500 nM)",
    "tgt": "HDQ-P1",
    "normalised response": "-37%"
  },
  {
    "molecule": "CCCCC/C=C/C=C1/C(=O)C=C[C@@H]1C/C=C\\CCCC(=O)O [15D-PGJ2] (80 nM)",
    "tgt": "HDQ-P1",
    "normalised response": "111%"
  },
  {
    "molecule": "CS(=O)(=O)N1CCN(Cc2cc3nc(-c4cccc5[nH]ncc45)nc(N4CCOCC4)c3s2)CC1 [Pictilisib] (10000 nM)",
    "tgt": "HDQ-P1",
    "normalised response": "85.4%"
  },
  {
    "molecule": "COc1nc(N)nc2c1ncn2[C@@H]1O[C@H](CO)[C@@H](O)[C@@H]1O [Nelarabine] (10000 nM)",
    "tgt": "HDQ-P1",
    "normalised response": "111%"
  },
  {
    "molecule": "CO[C@@H](C(=O)N1Cc2[nH]nc(NC(=O)c3ccc(N4CCN(C)CC4)cc3)c2C1)c1ccccc1 [Danusertib] (10000 nM)",
    "tgt": "HDQ-P1",
    "normalised response": "48%"
  },
  {
    "molecule": "Cc1c(CN2CCN(C(=O)[C@H](C)O)CC2)sc2c(N3CCOCC3)nc(-c3cnc(N)nc3)nc12 [GDC-0980] (1000 nM)",
    "tgt": "HDQ-P1",
    "normalised response": "103%"
  },
  {
    "molecule": "Cn1cc(CNCC2CCN(c3ncc(C(=O)NO)cn3)CC2)c2ccccc21 [Quisinostat] (100 nM)",
    "tgt": "HDQ-P1",
    "normalised response": "-19.4%"
  }
]

Where do the numbers come from? From the supplement of paper PMC4862054.
